- target_desc: hTRPV3 (Homo sapiens (Human))
- Sequence (Q8NET8 whole entry): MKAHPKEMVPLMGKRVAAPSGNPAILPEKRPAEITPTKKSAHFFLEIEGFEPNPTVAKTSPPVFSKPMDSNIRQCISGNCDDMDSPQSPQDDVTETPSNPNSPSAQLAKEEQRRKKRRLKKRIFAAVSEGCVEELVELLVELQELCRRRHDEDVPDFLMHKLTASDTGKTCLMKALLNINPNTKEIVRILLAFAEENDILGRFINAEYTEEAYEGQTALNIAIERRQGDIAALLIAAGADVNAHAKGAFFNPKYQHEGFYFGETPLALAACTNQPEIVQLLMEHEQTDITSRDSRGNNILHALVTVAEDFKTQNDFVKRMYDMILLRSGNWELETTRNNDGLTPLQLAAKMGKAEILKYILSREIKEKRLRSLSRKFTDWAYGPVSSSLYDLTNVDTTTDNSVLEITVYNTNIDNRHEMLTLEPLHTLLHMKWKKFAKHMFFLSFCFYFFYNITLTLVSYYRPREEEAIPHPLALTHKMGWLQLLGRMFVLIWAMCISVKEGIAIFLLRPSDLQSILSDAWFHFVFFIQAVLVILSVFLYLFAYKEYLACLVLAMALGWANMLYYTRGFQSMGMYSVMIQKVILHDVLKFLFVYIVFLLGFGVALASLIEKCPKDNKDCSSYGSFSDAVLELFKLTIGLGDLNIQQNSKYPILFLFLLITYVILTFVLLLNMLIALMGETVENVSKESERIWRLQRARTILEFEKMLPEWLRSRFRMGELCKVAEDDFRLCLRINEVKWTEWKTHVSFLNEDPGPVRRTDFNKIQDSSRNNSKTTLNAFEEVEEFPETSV
- procedure_summary: Whole-cell patch clamp, hTRPV3 Phase 1 / Phase 2 currents
- Assay type: cell-based
- condition_set: Phase 1 current, inward, whole-cell patch clamp; read-out: hTRPV3 Patch P1 Inwd
Where a name gives a salt, the structure may show the parent alone.
measure: IC50

Exercise: Any idea what IC50 was measured for CCOc1ccccc1-c1ccc(N2CC[C@H](Oc3ccc(C(F)(F)F)cn3)C2)c(CO)c1 [Compound 1-162] ?
Key: 10 to 100 nM

Exercise: Fill blank: measured IC50 of the compound OCc1cc(Oc2cccc(Cl)c2)ccc1N1CC[C@H](Oc2ccccn2)C1 [Compound 1-304] is ____.
Key: 10 to 100 nM

Exercise: Value lookup for IC50; key = COc1ccc(Oc2ccc(N3CC[C@H](Oc4ccccn4)C3)c(CO)c2)cc1 [Compound 1-302]
Key: 100 to 1000 nM

Exercise: Quick check: IC50 of CC(C)Oc1ccccc1N1CC[C@H](Oc2ccc(C(F)(F)F)cn2)C1 [Compound 1-15] ?
Key: > 1000 nM

Exercise: # query: IC50 of entry NC(=O)c1cc(-c2ccc(F)cc2)ccc1N1CC[C@H](Oc2ccc(C(F)(F)F)cn2)C1 [Compound 1-65]
Key: 100 to 1000 nM

Exercise: # IC50 lookup, item CCOC(=O)COc1cc(-c2ccccc2)ccc1N1CC[C@H](Oc2ccc(C(F)(F)F)cn2)C1 [Compound 1-134]
Key: > 1000 nM

Exercise: Recorded IC50 for Cc1ccc(CN2CCC(c3ccc(Oc4ccccc4C(C)C)cc3CO)C2)nc1 (stereo not shown) [Compound 2-90, hydrochloride] , please?
Key: 100 to 1000 nM

Exercise: Query: IC50; subject: CC(C)c1ccccc1Oc1ccc(C2CC(=O)N(Cc3ccc(Cl)cn3)C2)c(C(N)=O)c1 (stereo not shown) [Compound 2-102]
Key: > 1000 nM

Exercise: What value of IC50 has been reported for the following compound? OCc1ncc(-c2ccccc2)cc1N1CC[C@H](Oc2ccc(C(F)(F)F)cn2)C1 [Compound 1-188]
Key: > 1000 nM

Exercise: // lookup IC50 for OCc1cc(Oc2ccccc2F)ccc1N1CC[C@H](Oc2ncccc2Cl)C1 [Compound 1-270]
Key: < 10 nM

Exercise: // returns reported IC50 for input O=C(c1cnccn1)N1CCC(c2ccc(-c3ccccc3C3CC3)cc2CO)C1 (stereo not shown) [Compound 2-105]
Key: 10 to 100 nM

Exercise: I would be grateful if you could share the reported IC50 for OCc1cc(-c2ccccc2OC(F)(F)F)ccc1N1CC[C@H](Oc2ccc(C(F)(F)F)cn2)C1 [Compound 1-161] .
Key: 10 to 100 nM

Exercise: Any idea what IC50 was measured for Cc1ccc(O[C@H]2CCN(c3ccc(-c4ccccc4CN(C)C(=O)OC(C)(C)C)nc3CO)C2)nc1 [Compound 1-258] ?
Key: 100 to 1000 nM

Exercise: What measured IC50 goes with NC(=O)c1cc(-c2ccccc2)ccc1N1CC[C@H](Oc2ccc(C(F)(F)F)cn2)C1 [Compound 1-32] ?
Key: 100 to 1000 nM

Exercise: Query (compound): CCc1cncnc1Oc1ccc(C2CCN(C(=O)c3ccc(F)cn3)C2)c(CO)c1 (stereo not shown) [Compound 2-24] ; field requested: IC50
Key: > 1000 nM

Exercise: Entry CCc1cc(F)ccc1Oc1ccc(N2CC[C@H](Oc3ccccn3)C2)c(CO)c1 [Compound 1-330] has what IC50?
Key: 10 to 100 nM
